# experimental_target: UniProt:Q72547
# protocol_text: Inhibitory activity against human immunodeficiency virus (HIV) - 1 reverse transcriptase with rCdG as the template primer
measurement_label: log10 of IC50 (log10 of the value in µM)
Scale: decimal log of IC50, IC50 in µM.

INPUT: Sample COC(=O)c1cc(C(=CCCN)c2cc(Cl)c(OC)c(C(=O)OC)c2)cc(Cl)c1OC — what was its log10 of IC50?
OUTPUT: 1.80

INPUT: Then this compound: CC=C(c1cc(Br)c(OC)c(C(=O)OC)c1)c1cc(Br)c(OC)c(C(=O)OC)c1
OUTPUT: 1.41

INPUT: Then this compound: CCCCCC=C(c1ccc(OC)c(C(=O)OC)c1)c1ccc(OC)c(C(=O)OC)c1
OUTPUT: 0.51

INPUT: Then this compound: COC(=O)c1cc(C(=CCCN=[N+]=[N-])c2cc(Br)c(OC)c(C(=O)OC)c2)cc(Br)c1OC
OUTPUT: 1.97

INPUT: Then this compound: CCCCCC1OC1(c1cc(Br)c(OC)c(C(=O)OC)c1)c1cc(Br)c(OC)c(C(=O)OC)c1 (stereo unspecified)
OUTPUT: 0.75

###

# Tested on: CCRF-CEM
# protocol_text: The compound is evaluated for the activity against DPS ( Diphenyl sulfone resistant), Y181C mutation in reverse transcriptase in CEM-CC cells.
# Format: functional, cell-based
# cond: Homo sapiens
measurement_label: EC50

INPUT: Lookup: EC50 / CCRF-CEM / COC(=O)CCCC=C(c1cc(Cl)c(OC)c(C(=O)OC)c1)c1cc(Cl)c(OC)c(C(=O)OC)c1
OUTPUT: > 50 µM

###

# System: CCRF-CEM
# protocol_text: The compound is evaluated for the activity against 3TC, M184I mutation in reverse transcriptase in CEM-CC cells.
# Assay type: functional, cell-based
# cond: Homo sapiens
measurement_label: pEC50
The value called pEC50 is obtained by taking minus log10 of the concentration in mol/L.

INPUT: Sample COC(=O)CCCC=C(c1cc(Cl)c(OC)c(C(=O)OC)c1)c1cc(Cl)c(OC)c(C(=O)OC)c1 — what was its pEC50?
OUTPUT: 5.97

###

# System: CEM-SS
# protocol_text: The compound is evaluated for the inhibitory activity against HIV-1 RF, wild-type laboratory adapted strain in CEM-SS.
# Type: functional, cell-based
# cond: Homo sapiens
measurement_label: pEC50
The value called pEC50 is obtained by taking minus log10 of the concentration in mol/L.

INPUT: Sample COC(=O)CCCC=C(c1cc(Cl)c(OC)c(C(=O)OC)c1)c1cc(Cl)c(OC)c(C(=O)OC)c1 — what was its pEC50?
OUTPUT: 6.04

###

# Test system: CEM-SS
# protocol_text: The compound is evaluated for the activity against HIV-1 NL4-3, V108I mutation in reverse transcriptase in CEM-SS cells.
measurement_label: pEC50
The value called pEC50 is obtained by taking minus log10 of the concentration in mol/L.

INPUT: Sample COC(=O)CCCC=C(c1cc(Cl)c(OC)c(C(=O)OC)c1)c1cc(Cl)c(OC)c(C(=O)OC)c1 — what was its pEC50?
OUTPUT: 4.92

###

# experimental_target: UniProtKB Q72547
# protocol_text: Inhibitory activity against human immunodeficiency virus (HIV) - 1 reverse transcriptase with rCdG as the template primer
For each record, write down the corresponding IC50.

INPUT: Sample COC(=O)c1cc(C(=CCCO)c2cc(Br)c(OC)c(C(=O)OC)c2)cc(Br)c1OC — what was its IC50?
OUTPUT: 31.6 µM

INPUT: Then this compound: COC(=O)c1cc(C(=CCCN=[N+]=[N-])c2cc(Cl)c(OC)c(C(=O)OC)c2)cc(Cl)c1OC
OUTPUT: 2 µM

INPUT: Then this compound: COC=C(c1cc(Br)c(OC)c(C(=O)OC)c1)c1cc(Br)c(OC)c(C(=O)OC)c1
OUTPUT: > 100 µM

INPUT: Then this compound: C=C(c1cc(Br)c(OC)c(C(=O)OC)c1)c1cc(Br)c(OC)c(C(=O)OC)c1
OUTPUT: > 100 µM

INPUT: Then this compound: COC(=O)C=C(c1cc(Cl)c(OC)c(C(=O)OC)c1)c1cc(Cl)c(OC)c(C(=O)OC)c1
OUTPUT: 16 µM

INPUT: Then this compound: COc1c(Cl)cc(C(=CCC(=O)O)c2cc(Cl)c(OC)c(C(=O)O)c2)cc1C(=O)O
OUTPUT: > 100 µM

INPUT: Then this compound: COC(=O)c1cc(C(=CC(=O)OC(C)(C)C)c2cc(Cl)c(OC)c(C(=O)OC)c2)cc(Cl)c1OC
OUTPUT: > 100 µM

INPUT: Then this compound: COC(=O)c1cc(C(=CCCOS(C)(=O)=O)c2cc(Cl)c(OC)c(C(=O)OC)c2)cc(Cl)c1OC
OUTPUT: 96 µM

INPUT: Then this compound: CCCCCC=C(c1cc(I)c(OC)c(C(=O)OC)c1)c1cc(I)c(OC)c(C(=O)OC)c1
OUTPUT: 11 µM

###

# Tested on: CEM-SS
# protocol_text: The compound is evaluated for the activity against HIV-1 NL4-3, Y181C mutation in reverse transcriptase in CEM-SS cells.
pEC50: −log10 of the molar value.
measurement_label: pEC50

INPUT: Lookup: pEC50 / CEM-SS / COC(=O)CCCC=C(c1cc(Cl)c(OC)c(C(=O)OC)c1)c1cc(Cl)c(OC)c(C(=O)OC)c1
OUTPUT: < 4.30

###

# experimental_target: Human immunodeficiency virus type 1 protease (Human immunodeficiency virus 1, UniProt Q72874)
# protocol_text: The compound is evaluated for the inhibitory against HIV -1 protease, a 17% inhibition of HIV-1 protease was observed at a concentration of 100 uM
measurement_label: IC50

INPUT: Sample COC(=O)CCCC=C(c1cc(Cl)c(OC)c(C(=O)OC)c1)c1cc(Cl)c(OC)c(C(=O)OC)c1 — what was its IC50?
OUTPUT: > 100 µM

###

# System: CEM-SS
# protocol_text: The compound is evaluated for the inhibitory activity against HIV-1 IIIB, wild-type laboratory adapted strain in CEM-SS.
# Type: functional, cell-based
# cond: Homo sapiens
measurement_label: EC50 (nM)
All answers are understood in nM, so give the number only.

INPUT: Sample COC(=O)CCCC=C(c1cc(Cl)c(OC)c(C(=O)OC)c1)c1cc(Cl)c(OC)c(C(=O)OC)c1 — what was its EC50?
OUTPUT: 160

###

# protocol_text: The compound is evaluated for the inhibitory activity against HIV-1, clade A in PBMC cells.
# Assay type: functional, cell-based, Homo sapiens
measurement_label: EC50 (µM)
All answers are understood in µM, so give the number only.

INPUT: Sample COC(=O)CCCC=C(c1cc(Cl)c(OC)c(C(=O)OC)c1)c1cc(Cl)c(OC)c(C(=O)OC)c1 — what was its EC50?
OUTPUT: 1.09

###

# Species on record: Homo sapiens
# protocol_text: The compound is evaluated for the inhibitory activity against HIV-1 Ba-L, monocyte-tropic in Mono/Mac cells.
# Type: functional, cell-based
measurement_label: pEC50
The value called pEC50 is obtained by taking minus log10 of the concentration in mol/L.

INPUT: Sample COC(=O)CCCC=C(c1cc(Cl)c(OC)c(C(=O)OC)c1)c1cc(Cl)c(OC)c(C(=O)OC)c1 — what was its pEC50?
OUTPUT: 6.44
